The reported measurements were obtained from patent US20250368734A1.

- MEASURED ON: T1, human GPRC5D (human, UniProt Q9NZD1 1-345)
- T1 construct: whole, on cells; also called hGPRC5D; G-protein coupled receptor family C group 5 member D
- TEST PROTOCOL: FACS, OPM-2 cells
// reported MFI for each item listed

1) 87A3G8 (antibody, V domains shown, Mouse monoclonal antibody from hybridoma subclone) VH: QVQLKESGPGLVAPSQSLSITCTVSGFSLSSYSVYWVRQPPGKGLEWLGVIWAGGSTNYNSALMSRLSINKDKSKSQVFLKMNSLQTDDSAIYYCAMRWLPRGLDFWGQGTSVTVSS VL: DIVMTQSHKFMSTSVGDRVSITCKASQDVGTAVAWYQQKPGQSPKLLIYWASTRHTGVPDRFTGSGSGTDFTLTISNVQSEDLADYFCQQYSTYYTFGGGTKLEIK	451
2) 28H9C12 (antibody, V domains shown, Mouse monoclonal antibody from hybridoma subclone; also called 281H9C12) VH: EVQLVESGGGLVKPGGSLKLSCAASGFTFSDYGMHWVRQAPEKGLEWVAYISSGSSTIYYADTVKGRFTISRDNAKNTLFLQMTSLRSEDTAIYYCVRRPWYFDVWGTGTTVTVSS VL: DVLMTQTPLSLPVSLGDQASISCRSSQSIVHSNGNTYLQWYLQKPGQSPKLLIYKVSNRFSGVPDRFSGSGSGTDFTLKISRLEAEDLGVYYCFQGSHVPFTFGSGTKLEIK	1120

Kindly consider the entry below.
Query 20C4E1 (antibody, V domains shown, Mouse monoclonal antibody from hybridoma subclone) VH: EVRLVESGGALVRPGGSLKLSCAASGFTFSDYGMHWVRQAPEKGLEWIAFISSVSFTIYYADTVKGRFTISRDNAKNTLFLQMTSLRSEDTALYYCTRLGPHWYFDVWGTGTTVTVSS VL: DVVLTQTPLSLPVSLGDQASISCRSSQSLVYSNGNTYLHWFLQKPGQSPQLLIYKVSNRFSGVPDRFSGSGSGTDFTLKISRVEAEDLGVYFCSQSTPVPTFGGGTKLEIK yields MFI of 2020
